tested on: Plasmodium falciparum; test: NOVARTIS: Inhibition of Plasmodium falciparum 3D7 (drug-susceptible) proliferation in erythrocyte-based infection assay; type: functional, organism-based; details: Plasmodium falciparum, 3D7
pEC50: −log10 of the molar value.
Recorded pEC50 by entry

[
  {
    "Compound": "Cc1ccccc1CNC(=O)c1oc2c(c1C)-c1[nH]ncc1CC2",
    "Cmp": "<",
    "pEC50": 5.90
  },
  {
    "Compound": "CC(c1nc2ccccc2c(=O)n1C)N1CCN(C(=O)C(C)(C)C)CC1 (stereo not given)",
    "Cmp": "=",
    "pEC50": 6.73
  },
  {
    "Compound": "Cc1ccc(-n2c(C(C)N(Cc3ccco3)C(=O)C3CCC3)nc3cc(Cl)ccc3c2=O)cc1 (stereo not given)",
    "Cmp": "<",
    "pEC50": 5.77
  },
  {
    "Compound": "CCN(CC)[P+](N(C)C[Si](C)(C)C)(N(CC)CC)N(CC)CC",
    "Cmp": "=",
    "pEC50": 6.81
  },
  {
    "Compound": "COc1cc2nc(NCC3CCCO3)n3nc(-c4ccccc4)nc3c2cc1OC (stereo not given)",
    "Cmp": "=",
    "pEC50": 6.53
  },
  {
    "Compound": "CC(C)CNc1nc(NCCCn2ccnc2)ncc1C(=O)NCCc1ccccc1",
    "Cmp": "=",
    "pEC50": 6.56
  },
  {
    "Compound": "COC(=O)c1ccc(N(C(=O)Cc2c[nH]c3ccccc23)C(C(=O)NC2CCCCC2)c2ccccc2F)cc1 (stereo not given)",
    "Cmp": "=",
    "pEC50": 6.70
  },
  {
    "Compound": "CCc1c(C)c(=N)c2ccccc2n1C",
    "Cmp": "=",
    "pEC50": 6.15
  },
  {
    "Compound": "Cc1cc(Nc2ccc(Br)c(C)c2)n2nc(C)nc2n1",
    "Cmp": "=",
    "pEC50": 7.28
  },
  {
    "Compound": "O=C(N/C(=C/C=C\\c1ccccc1)C(=O)N1CCOCC1)c1ccc(Br)cc1",
    "Cmp": "<",
    "pEC50": 5.89
  }
]

* * *

test system: Plasmodium falciparum; assay: NOVARTIS: Inhibition of Plasmodium falciparum W2 (drug-resistant) proliferation in erythrocyte-based infection assay; format: functional, organism-based; conditions: Plasmodium falciparum, W2; read-out: EC50
pEC50: −log10 of the molar value.

[
  {
    "Compound": "COc1cc(C(Nc2ccccn2)c2ccc3cccnc3c2O)cc(Br)c1OC (stereo unspecified)",
    "pEC50": 6.66
  },
  {
    "Compound": "CCN(CC)CCCC(C)Nc1ccnc2cc(Cl)ccc12 (stereo unspecified) [CHLOROQUINE]",
    "pEC50": 7.08
  },
  {
    "Compound": "COc1ccc(C2C(C(=O)Nc3cccc(C(F)(F)F)c3)c3ccccc3C(=O)N2C2CCCCC2)cc1 (stereo unspecified)",
    "pEC50": 5.95
  },
  {
    "Compound": "CCNC(=O)NCCSc1nc(-c2ccccc2)c(-c2ccccc2)n1CC",
    "pEC50": 6.04
  },
  {
    "Compound": "COc1ccc(-c2csc3nc(COc4cccc(C)c4)nn23)c(O)c1",
    "pEC50": 5.12
  },
  {
    "Compound": "CCOC(=O)c1c(N)n(-c2ccc(CC)cc2)c2nc3ccccc3nc12",
    "pEC50": 6.08
  }
]

* * *

Quick list: CC50 per entry.
test: NOVARTIS: Cytotoxicity against human hepatocellular carcinoma cell line (Huh7); type: toxicity, cell-based, Huh-7; conditions: Huh7 cells (hepatocellular carcinoma cell line)

[
  {
    "Compound": "Cc1ccc(-c2cc(C(=O)OCC(=O)c3cccc([N+](=O)[O-])c3)c3cc(C)ccc3n2)cc1",
    "CC50": "> 100 µM"
  },
  {
    "Compound": "COc1ccc(-c2nc(NC(=O)CS(=O)(=O)c3ccccc3)sc2C)cc1",
    "CC50": "> 100 µM"
  },
  {
    "Compound": "O=C(c1cc2n(n1)C(C(F)(F)F)CC(c1cccs1)N2)N1CCN(C(c2ccccc2)c2ccccc2)CC1 (stereo unspecified)",
    "CC50": "> 100 µM"
  },
  {
    "Compound": "C=CCOc1c(Br)cc(C=c2sc3n(c2=O)C(c2ccc(OC)c(OC)c2)C(C(=O)OCC)=C(C)N=3)cc1OC (stereo unspecified)",
    "CC50": "> 100 µM"
  },
  {
    "Compound": "c1ccc(Cc2cc[n+](Cc3ccccc3)cc2)cc1",
    "CC50": "> 100 µM"
  },
  {
    "Compound": "CC(C)(C)NCC(O)Cn1c2ccc(I)cc2c2cc(I)ccc21 (stereo unspecified)",
    "CC50": "6.09 µM"
  },
  {
    "Compound": "CCCCCc1ccc(OCCOCC[n+]2ccccc2)c(CCCCC)c1",
    "CC50": "> 10 µM"
  },
  {
    "Compound": "COc1ccc(C2CC(=O)C3=C(C2)NC(C)=C(C(=O)OC2CCCC2)C3c2ccccc2C)cc1OC (stereo unspecified)",
    "CC50": "> 100 µM"
  },
  {
    "Compound": "O=C(NCc1ccco1)c1ccc(OC2CCN(Cc3ccncc3)CC2)c(Cl)c1",
    "CC50": "> 100 µM"
  },
  {
    "Compound": "N=C(N)c1ccc(OCCCCCOc2ccc(C(=N)N)cc2)cc1",
    "CC50": "> 6.25 µM"
  },
  {
    "Compound": "Clc1ccc2[nH]c3c(NCCCN4CCOCC4)ncnc3c2c1",
    "CC50": "31.2 µM"
  },
  {
    "Compound": "C=CCN1CCN(C(c2ccccc2F)c2nnnn2Cc2ccco2)CC1 (stereo unspecified)",
    "CC50": "> 77 µM"
  },
  {
    "Compound": "COc1ccc(C=NN=C2NC(=O)C(CC(=O)Nc3ccccc3)S2)cc1OC (stereo unspecified)",
    "CC50": "> 100 µM"
  },
  {
    "Compound": "O=C(Nc1ccc(-n2cccn2)cc1)C1CCN(CC=Cc2ccccc2)CC1",
    "CC50": "> 99.8 µM"
  },
  {
    "Compound": "Cc1cc(C)cc(-n2c(C)cc(/C=C3\\SC(=Nc4ccc(Br)cc4)NC3=O)c2C)c1",
    "CC50": "> 100 µM"
  },
  {
    "Compound": "Cc1ccc2[nH]c3c(NCCc4ccccc4F)ncnc3c2c1",
    "CC50": "16.5 µM"
  },
  {
    "Compound": "COc1cc(NCc2cnc(N)nc2N)cc(OC)c1",
    "CC50": "> 10 µM"
  },
  {
    "Compound": "CC(C)CNCc1cc(-c2ccc(F)cc2)ccc1O",
    "CC50": "58.6 µM"
  },
  {
    "Compound": "O=C(NNS(=O)(=O)c1ccccc1[N+](=O)[O-])c1ccccc1",
    "CC50": "> 10 µM"
  },
  {
    "Compound": "COc1cc(NC(C)CCCN(Cc2ccc(Cl)cc2)C(=O)Nc2ccc(Cl)cc2Cl)c2ncccc2c1 (stereo unspecified)",
    "CC50": "5.6 µM"
  },
  {
    "Compound": "CC1=C(C(=O)OC2CCCC2)C(c2ccccc2F)C2=C(CC(c3ccccc3)CC2=O)N1 (stereo unspecified)",
    "CC50": "> 100 µM"
  },
  {
    "Compound": "Cc1ccc(NC=C2C(=O)NC(=S)NC2=O)cc1",
    "CC50": "> 100 µM"
  },
  {
    "Compound": "CCOC(=O)c1cnc(SCC(=O)Nc2cc(C)ccc2C)nc1N",
    "CC50": "> 10 µM"
  },
  {
    "Compound": "Cn1c2ccccc2c2nnc(NN=Cc3ccccn3)nc21",
    "CC50": "> 10 µM"
  },
  {
    "Compound": "O=C(CN1CCCC1)Nc1c2c(nc3c1CCC3)CCC2",
    "CC50": "> 10 µM"
  },
  {
    "Compound": "CCOc1ccc2nc(NCCNC(=O)c3ccco3)c(C)cc2c1",
    "CC50": "> 10 µM"
  },
  {
    "Compound": "O=C(Nc1ccc(-c2cc(-c3ccccc3)nc(-c3ccc(NC(=O)c4cccc([N+](=O)[O-])c4)cc3)n2)cc1)c1cccc([N+](=O)[O-])c1",
    "CC50": "> 10 µM"
  },
  {
    "Compound": "CC(C)CCN(CCC(C)C)CC(O)Cn1c2ccc(Cl)cc2c2cc(Cl)ccc21 (stereo unspecified)",
    "CC50": "> 100 µM"
  },
  {
    "Compound": "O=C(Cc1ccccc1)NCc1nnc(SCC(=O)N2N=C(c3cccs3)CC2c2ccc(F)cc2)n1Cc1ccccc1 (stereo unspecified)",
    "CC50": "> 100 µM"
  },
  {
    "Compound": "COc1ccc2nc(C)cc(Nc3ccc(Oc4ccc5ccccc5c4Cl)c(Cl)c3)c2c1",
    "CC50": "64.1 µM"
  },
  {
    "Compound": "CCN(CC)CCCC(C)Nc1ccnc2ccc(-c3ccccc3)cc12 (stereo unspecified)",
    "CC50": "> 10 µM"
  },
  {
    "Compound": "CN(CCCNc1ccnc2cc(Cl)ccc12)C(=O)c1ccc(Br)cc1",
    "CC50": "2.61 µM"
  },
  {
    "Compound": "O=C(C1CCCCN1)N1CC(c2ccccc2)c2ccccc2C1CN1CCCCC1 (stereo unspecified)",
    "CC50": "4.68 µM"
  },
  {
    "Compound": "CCN(CC)CCCC(C)Nc1ccnc2cc3ccccc3cc12 (stereo unspecified)",
    "CC50": "21.3 µM"
  },
  {
    "Compound": "CC(C)c1ccc(/C=C/C(=O)NCc2ccco2)cc1",
    "CC50": "> 10 µM"
  },
  {
    "Compound": "NC(=O)NN=C1c2cc(S(=O)(=O)NCc3ccco3)ccc2-c2ccc(S(=O)(=O)NCc3ccco3)cc21",
    "CC50": "> 10 µM"
  },
  {
    "Compound": "CCc1ccc(-n2c(C(CC)N(CCc3ccc(OC)c(OC)c3)C(=O)C(CC)c3ccccc3)nc3ccccc3c2=O)cc1 (stereo unspecified)",
    "CC50": "> 10 µM"
  },
  {
    "Compound": "COC(=O)c1ccc2c(=O)n(Cc3ccc4c(c3)OCO4)c(SCC(=O)n3nc(C)cc3N)nc2c1",
    "CC50": "> 10 µM"
  },
  {
    "Compound": "CSc1nc2nc(C)c(Cc3cccc(C(F)(F)F)c3)c(C)n2n1",
    "CC50": "> 100 µM"
  },
  {
    "Compound": "CCOC(=O)C(=CNc1ccccc1[N+](=O)[O-])C(=O)OCC",
    "CC50": "> 100 µM"
  },
  {
    "Compound": "c1cc2cc(CN3CCc4nc(N5CCCCC5)sc4C3)ccc2[nH]1",
    "CC50": "> 10 µM"
  }
]
